// data source = PubChem BioAssay (NCATS)

target: Hexokinase-4 (Homo sapiens) + Glucokinase regulatory protein (Homo sapiens) (UniProt P35557+Q14397); assay: qHTS assay for inhibitors of recombinant human GCK-GKRP interaction: HTRF assay (AID 743207); settings: recombinant GCK-GKRP HTRF binding, 60 min, with sorbitol-6-phosphate; series mostly up to 57.5 µM
Sequence (P35557 whole entry, looked up): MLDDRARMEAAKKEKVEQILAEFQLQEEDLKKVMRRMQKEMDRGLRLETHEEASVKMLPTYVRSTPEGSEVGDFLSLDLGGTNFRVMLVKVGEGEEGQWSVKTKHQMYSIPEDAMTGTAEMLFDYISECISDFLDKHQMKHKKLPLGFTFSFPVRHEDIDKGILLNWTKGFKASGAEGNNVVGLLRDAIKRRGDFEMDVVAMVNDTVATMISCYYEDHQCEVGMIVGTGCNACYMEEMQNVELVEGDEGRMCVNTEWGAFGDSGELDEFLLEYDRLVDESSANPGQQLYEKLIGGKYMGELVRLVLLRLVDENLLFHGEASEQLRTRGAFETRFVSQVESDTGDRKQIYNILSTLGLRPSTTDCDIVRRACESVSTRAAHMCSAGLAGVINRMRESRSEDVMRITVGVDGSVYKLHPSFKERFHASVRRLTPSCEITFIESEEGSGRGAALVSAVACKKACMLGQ
Sequence (Q14397 whole entry, looked up): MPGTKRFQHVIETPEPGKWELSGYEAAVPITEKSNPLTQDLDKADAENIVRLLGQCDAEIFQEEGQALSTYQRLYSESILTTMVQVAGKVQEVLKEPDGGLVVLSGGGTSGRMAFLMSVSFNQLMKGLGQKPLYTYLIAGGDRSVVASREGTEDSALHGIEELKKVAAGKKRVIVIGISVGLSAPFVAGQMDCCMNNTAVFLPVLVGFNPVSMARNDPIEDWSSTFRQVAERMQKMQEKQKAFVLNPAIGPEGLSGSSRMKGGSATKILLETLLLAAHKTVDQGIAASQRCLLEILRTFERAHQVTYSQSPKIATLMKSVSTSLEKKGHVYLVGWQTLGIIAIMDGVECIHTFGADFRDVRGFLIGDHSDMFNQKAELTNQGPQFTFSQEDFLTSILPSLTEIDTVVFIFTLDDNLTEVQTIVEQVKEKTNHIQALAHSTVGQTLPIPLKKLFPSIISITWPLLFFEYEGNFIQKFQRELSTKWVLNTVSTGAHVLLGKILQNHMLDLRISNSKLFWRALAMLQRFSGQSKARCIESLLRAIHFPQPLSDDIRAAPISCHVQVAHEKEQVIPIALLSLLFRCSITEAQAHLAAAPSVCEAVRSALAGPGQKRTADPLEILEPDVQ
Calls of active or inactive are those of the source. Calls follow the shape of the dose curve; as a rule, active = well fitted curve in the direction sought with a large enough effect; inconclusive = small, poorly fitted or top-dose-only effect, or another doubt; inactive = no such curve, though single readings can be large or run the other way.
PARAMETER_MEASURED: outcome

// worked examples, outcome included
{"COMPOUND": "Cc1cccc(C2CN(C)CCc3c2cc(O)c(O)c3Cl)c1 (stereo unspecified)", "outcome": "inactive"}
{"COMPOUND": "O=C1Cc2c([nH]c3ccc(Br)cc23)-c2ccccc2N1", "outcome": "inactive"}
{"COMPOUND": "c1ccc(C(NCc2cccnc2)(c2ccccc2)c2ccccc2)cc1", "outcome": "inactive"}
{"COMPOUND": "C=CC[C@H](N)C(=O)O", "outcome": "inactive"}
{"COMPOUND": "CC(C)(C)c1cc(/C=C(\\C#N)C(N)=S)cc(C(C)(C)C)c1O", "outcome": "inactive"}
{"COMPOUND": "O=C1Nc2ccc(I)cc2/C1=C/c1cc(Br)c(O)c(Br)c1", "outcome": "inactive"}
{"COMPOUND": "COc1cc([C@@H]2c3cc4c(cc3[C@H](O)C3COC(=O)[C@@H]32)OCO4)cc(OC)c1OC (stereo partly specified)", "outcome": "inactive"}
{"COMPOUND": "NCC(O)c1ccc(O)c(O)c1 (stereo unspecified)", "outcome": "inactive"}

Item: `[N-]=[N+]=Nc1ccc(C(=O)CSC[C@H](NC(=O)CC[C@H](N)C(=O)O)C(=O)NCC(=O)O)cc1` | outcome: inactive

Item: `C[C@@H](NCCc1ccc(O)cc1)[C@@H](O)c1ccc(O)cc1` | outcome: inactive

Item: `COc1ccccc1N1CCN(CCCCN2C(=O)c3ccccc3C2=O)CC1` | outcome: inactive
